Test system: Escherichia coli TOP10
Assay: shrunken log2 fold change of peptide-encoding DNA abundance (4.5 h post-induction vs induction); higher = less antimicrobial activity (less host growth inhibition)
Settings: time post-induction: 4.5 h; library: site-saturation at positions 5, 18, 19, 20
property: shrunken log2 fold change
Please give the numeric answer without any surrounding text.

Reference set, count: 2
1) RRIRYRPPRLPRPRPRPGAQPRP : -0.0279
2) RRIRVRPPRLPRPRPRPDECPRP : -0.00624

With those in mind, consider the next sequence.
Qu. Output shrunken log2 fold change of RRIRCRPPRLPRPRPRPNCLPRP
Ans. -0.19

* * *

System: Escherichia coli TOP10;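 note: peptides expressed intracellularly from a pBAD plasmid library in pooled LB shake-flask culture, induced with 0.3% L-arabinose, DNA abundance read by NGS, three biological replicates, DESeq2 with apeglm shrinkage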
Experiment: shrunken log2 fold change of peptide-encoding DNA abundance (4.5 h post-induction vs induction); higher = less antimicrobial activity (less host growth inhibition)
Conditions: time post-induction: 4.5 h; library: site-saturation at positions 5, 18, 19, 20
Outcome label depends on shrunken log2 fold change relative to -0.2: at/above gives Yes, below gives No.

1. RRIRQRPPRLPRPRPRPRPHPRP : Yes
2. RRIRARPPRLPRPRPRPYICPRP : No
3. RRIRKRPPRLPRPRPRPNGPPRP : Yes

Qu. Does the sequence RRIRDRPPRLPRPRPRPFTFPRP have recorded shrunken log2 fold change that is -0.2 or more?
Ans. Yes

Qu. Quick check, shrunken log2 fold change >= -0.2? RRIRLRPPRLPRPRPRPFMRPRP
Ans. Yes

Qu. Is the recorded value of shrunken log2 fold change equal to or greater than -0.2 for this sequence? RRIRSRPPRLPRPRPRPDRIPRP
Ans. No

Qu. Hi team, for RRIRVRPPRLPRPRPRPCIPPRP , is the recorded shrunken log2 fold change at or above -0.2?
Ans. No

Qu. Record RRIRHRPPRLPRPRPRPNRLPRP ; criterion: shrunken log2 fold change no lower than -0.2. Met?
Ans. Yes
